experiment: chemical genetic growth profiling, strain panel (AID 1159580);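 further: tested at 20 µM; growth read once vehicle control cultures reached saturation at 30 °C; 1 = growth at the plate median or of vehicle wells; lower values mean less growth of the strain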
particulars: S. cerevisiae deletion strains, growth OD, locus YKL085W, strain MDH1 (second series), hits give low values
The campaign covered roughly 5,500 compounds. About 2,000 (36%) were called active. Not shown: some 18% with an inconclusive outcome. The list shows a part of the results.
assay-readout: normalized growth

The examples below pair each entry with its known result.
| molecule | endpoint-value |
| --- | --- |
| COc1ccc(-c2coc3cc(O)ccc3c2=O)cc1 | 0.968 (inactive) |
| COc1ccccc1-c1coc2cc(O)ccc2c1=O | 1 (inactive) |
| COc1ccc(-c2coc3cc(O)ccc3c2=O)c(OC)c1O | 0.976 (inactive) |
| CN(C)CCOC(c1ccc(Cl)cc1)c1ccccn1 (stereo not drawn) | 0.989 (inactive) |
| CCCCCCC(C)OC(=O)COc1cc(Cl)c(Cl)cc1Cl (stereo not drawn) | 0.986 (inactive) |
| O=c1c(-c2ccc(O)cc2)coc2cc(O)ccc12 | 1.01 (inactive) |
| c1ccc2c(c1)CCCC2C1=NCCN1 (stereo not drawn) | 1.01 (inactive) |
| O=C1CCC(N2C(=O)c3ccccc3C2=O)C(=O)N1 (stereo not drawn) | 1.03 (inactive) |

Challenge: Indicate the recorded normalized growth value for this molecule: `CC[C@@]1(O)C[C@H](O[C@H]2C[C@H](N(C)C)[C@H](O)[C@H](C)O2)c2c(cc3c(c2O)C(=O)c2c(O)cccc2C3=O)[C@H]1C(=O)OC`
Response given: 0.914 (active)

----------
experiment: chemical genetic growth profiling, strain panel (AID 1159580);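 further: tested at 20 µM; growth read once vehicle control cultures reached saturation at 30 °C; 1 = growth at the plate median or of vehicle wells; lower values mean less growth of the strain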
particulars: S. cerevisiae deletion strains, growth OD, locus YML124C, strain tub3, hits give low values
About 2,000 (36%) of roughly 5,500 compounds were called active. About 18% were inconclusive and are not listed. The list shows a part of the results.
# key: entry, value: normalized growth
Please respond with just the number, no unit label.

Take a look at these entries with their results.
| compound | normalized growth |
| --- | --- |
| CCCCC[C@H]1C(=O)O[C@H](C)[C@H](NC(=O)c2cccc(NC=O)c2O)C(=O)O[C@@H](C)[C@@H]1OC(=O)CC(C)C | 0.943 |
| C=CCc1ccc(O)c(OC)c1 | 0.917 |
| Cc1ccccc1C(OCCN(C)C)c1ccccc1 (configuration not stated) | 1 |
| COc1cc2nc(N(C)CCCNC(=O)C3CCCO3)nc(N)c2cc1OC (configuration not stated) | 0.997 |
| Nc1nc(=S)c2[nH]cnc2[nH]1 | 0.998 |
| NS(=O)(=O)c1cc2c(cc1Cl)NC=NS2(=O)=O | 0.996 |
| CN(C)CCOC(c1ccc(Cl)cc1)c1ccccn1 (configuration not stated) | 1 |
| CCCCCCCCCCC[C@@H](C[C@H]1OC(=O)[C@H]1CCCCCC)OC(=O)[C@@H](CC(C)C)NC=O | 1.01 |

Challenge: Name the recorded normalized growth of the item `COc1ccc(C(=O)O)cc1OC` in your answer.
Response given: 0.989

Challenge: Specify measured normalized growth for `N[C@@H](Cc1ccc(N(CCCl)CCCl)cc1)C(=O)O` .
Response given: 0.987

Challenge: For the compound Clc1ccc(C(OCCN2CCCCC2)c2ccccc2)cc1 (configuration not stated) , report normalized growth.
Response given: 1.01

Challenge: Hello, please tell me recorded normalized growth for this one: `O=C(O)CCCc1ccccc1`
Response given: 0.986
